All figures here come from patent US20260209316A1.

molecular target: T1, mucin domain-deleted Sudan GP (GPdMuc) (Sudan virus (SUDV), UniProt Q7T9D9 33-632); assay: BLI competition on Sudan GPdMuc (lower table); competitor mAb166
T1 construct: also called Sudan GPdMuc; GP(S)dMuc
ENDPOINT: % inhibition of binding (%)
Answers are plain numbers, in %.

Req: Suppose we examine the binder antibody 503S (antibody, V domains shown) VH: QVQLVQSGAEVKKPGASVRVSCKASGYTFTSYYMHWVRQAPGQGLEWMGQINPSGGTTRYERKFQGRITVTRDTSTSTVYLELSSLRSEDTASYFCACLRDKVTYYDLWSGVDSVWGQGTLVTVSS VL: DIQMTQSPSSLSASVGDRVTITCRASQDISTWLAWYQQKPEKAPKSLIYAASTLETGVPSRFSGSGSGTDFTLTISSLQPEDFATYYCEQYNGFPRTFGQGTKLDIK ; what % inhibition of binding value has been reported?
Resp: 20.7
